- System: Plasma
- assay notes: Drug level in CD1 mouse plasma at 30 mg/kg, po
- Format: ADME, organism-based
- Set-up: dose 30 mg/kg, route oral
- stated conditions: in vivo, read-out: Drug uptake
experimental endpoint: concentration (µM)
The response must be a number in µM with no trailing unit.

Query string: Please respond with reported concentration (system Plasma) for CC(C)(O)C(=O)c1oc2nc(-c3ccccc3Cl)c(-c3ccc(Cl)cc3)cc2c1NC(=O)CO .
Result string: 7

----------
- assay notes: Stability in phosphate buffer exposed to air assessed as degradation at pH 7.4 after 40 hrs
- Format: physicochemical
- stated conditions: read-out: Activity
experimental endpoint: degraded at 40 h (%)
The response must be a number in % with no trailing unit.

Query string: Give me measured degraded at 40 h, please, for this compound: CC(C)(C)C(=O)c1oc2nc(-c3ccc(Cl)cc3Cl)c(-c3ccc(Cl)cc3)cc2c1N
Result string: 40

----------
- Test system: Plasma
- assay notes: Drug level in CD1 mouse plasma at 100 mg/kg, po
- Assay type: ADME, organism-based
- Design: dose 100 mg/kg, route oral
- stated conditions: in vivo, read-out: Drug uptake
experimental endpoint: concentration (µM)
The response must be a number in µM with no trailing unit.

Query string: Give me measured concentration, please, for this molecule: CC(C)(O)C(=O)c1oc2nc(-c3ccccc3Cl)c(-c3ccc(Cl)cc3)cc2c1NC(=O)CO
Result string: 24

----------
logD values by entry
- assay notes: Lipophilicity, log D of the compound
- Type: physicochemical
- stated conditions: HPLC, pH 7.3
Lab note: write the figure by itself, no unit.

smiles record: CC(C)(C)C(=O)c1oc2nc(-c3ccccc3Cl)c(-c3ccc(Cl)cc3)cc2c1NC(=O)CO
logD: 6

As a next step, examine the molecule that follows.
Query string: Give me measured logD, please, for this molecule: CC(C)(C)C(=O)c1oc2nc(-c3ccc(Cl)cc3Cl)c(-c3ccc(Cl)cc3)cc2c1N
Result string: 6.7

----------
- assayed target: Cytochrome P450 1A2 (Homo sapiens, UniProt P05177)
- Sequence (P05177 whole entry): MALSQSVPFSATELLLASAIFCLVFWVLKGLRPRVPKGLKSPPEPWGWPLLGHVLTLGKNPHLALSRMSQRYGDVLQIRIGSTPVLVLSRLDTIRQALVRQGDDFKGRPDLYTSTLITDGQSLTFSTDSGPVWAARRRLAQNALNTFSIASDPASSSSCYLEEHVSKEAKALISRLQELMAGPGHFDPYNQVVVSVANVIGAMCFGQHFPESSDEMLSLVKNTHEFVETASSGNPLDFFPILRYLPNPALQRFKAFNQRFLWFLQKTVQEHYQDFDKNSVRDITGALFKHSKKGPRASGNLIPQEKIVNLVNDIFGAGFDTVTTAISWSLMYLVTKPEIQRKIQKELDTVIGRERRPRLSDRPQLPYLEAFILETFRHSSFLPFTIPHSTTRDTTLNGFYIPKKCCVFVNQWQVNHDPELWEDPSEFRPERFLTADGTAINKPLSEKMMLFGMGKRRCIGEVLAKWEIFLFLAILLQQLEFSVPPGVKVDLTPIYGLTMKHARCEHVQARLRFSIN
pIC50: −log10 of the molar value.
experimental endpoint: pIC50

Query string: Please respond with reported pIC50 (system Cytochrome P450 1A2 (Homo sapiens, UniProt P05177)) for CC(C)(O)C(=O)c1oc2nc(-c3ccccc3Cl)c(-c3ccc(Cl)cc3)cc2c1NC(=O)CO .
Result string: < 4.00

----------
- assay notes: Bioavailability in dog
- Format: ADME, organism-based, Canis lupus familiaris
- stated conditions: in vivo
bioavailability values by entry

smiles record: CC(C)(O)C(=O)c1oc2nc(-c3ccccc3Cl)c(-c3ccc(Cl)cc3)cc2c1NC(=O)CO
bioavailability: 9%

Query string: Give me measured bioavailability, please, for this molecule: CC(C)(C)C(=O)c1oc2nc(-c3ccc(Cl)cc3Cl)c(-c3ccc(Cl)cc3)cc2c1N
Result string: 63%

Query string: Give me measured bioavailability, please, for this molecule: CC(C)(C)C(=O)c1oc2nc(-c3ccccc3Cl)c(-c3ccc(Cl)cc3)cc2c1NC(=O)CO
Result string: 42%

Query string: Give me measured bioavailability, please, for this molecule: CC(=O)Nc1c(C(=O)C(C)(C)O)oc2nc(-c3ccccc3Cl)c(-c3ccc(Cl)cc3)cc12
Result string: 87%

Query string: Give me measured bioavailability, please, for this molecule: CC(C)C(=O)c1oc2nc(-c3ccccc3Cl)c(-c3ccc(Cl)cc3)cc2c1NC(=O)CO
Result string: 31%

----------
- assayed target: Cannabinoid receptor 1 (Homo sapiens, UniProt P21554)
- Sequence (P21554 whole entry): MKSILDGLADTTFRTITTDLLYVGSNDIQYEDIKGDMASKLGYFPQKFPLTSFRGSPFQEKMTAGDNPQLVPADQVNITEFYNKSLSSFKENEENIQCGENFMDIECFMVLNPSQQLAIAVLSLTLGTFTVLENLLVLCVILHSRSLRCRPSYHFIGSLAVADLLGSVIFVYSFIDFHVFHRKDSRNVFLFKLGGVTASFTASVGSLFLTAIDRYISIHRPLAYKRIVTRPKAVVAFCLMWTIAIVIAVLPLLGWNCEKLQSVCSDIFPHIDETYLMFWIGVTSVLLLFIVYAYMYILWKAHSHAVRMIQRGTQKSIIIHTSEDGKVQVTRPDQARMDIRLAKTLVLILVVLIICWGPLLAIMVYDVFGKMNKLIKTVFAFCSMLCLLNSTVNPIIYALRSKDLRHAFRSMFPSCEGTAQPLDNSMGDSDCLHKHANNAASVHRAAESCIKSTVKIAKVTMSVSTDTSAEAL
experimental endpoint: log10(IC50) (log10 of the value in nM)
Note the log scale: values are log10 of IC50 expressed in nM.

Worked examples, 5 compounds total:
smiles record: CC(C)(C)C(=O)c1oc2nc(-c3ccc(Cl)cc3Cl)c(-c3ccc(Cl)cc3)cc2c1N
log10(IC50): 0.74

smiles record: CC(C)(C)C(=O)c1oc2nc(-c3ccccc3Cl)c(-c3ccc(Cl)cc3)cc2c1N
log10(IC50): 0.63

smiles record: CC(=O)c1oc2nc(-c3ccc(Cl)cc3Cl)c(-c3ccc(Cl)cc3)cc2c1N
log10(IC50): 1.75

smiles record: CC(=O)Nc1c(C(=O)C(C)(C)O)oc2nc(-c3ccccc3Cl)c(-c3ccc(Cl)cc3)cc12
log10(IC50): 0.73

smiles record: Nc1c(C(=O)c2ccccc2)oc2nc(-c3ccc(Cl)cc3Cl)c(-c3ccc(Cl)cc3)cc12
log10(IC50): 0.54

Query string: Please respond with reported log10(IC50) (system Cannabinoid receptor 1 (Homo sapiens, UniProt P21554)) for CC(C)C(=O)c1oc2nc(-c3ccc(Cl)cc3Cl)c(-c3ccc(Cl)cc3)cc2c1N .
Result string: 0.28

Query string: Please respond with reported log10(IC50) (system Cannabinoid receptor 1 (Homo sapiens, UniProt P21554)) for CC(C)(O)C(=O)c1oc2nc(-c3ccccc3Cl)c(-c3ccc(Cl)cc3)cc2c1N .
Result string: 1.30

Query string: Please respond with reported log10(IC50) (system Cannabinoid receptor 1 (Homo sapiens, UniProt P21554)) for CCC(=O)c1oc2nc(-c3ccc(Cl)cc3Cl)c(-c3ccc(Cl)cc3)cc2c1N .
Result string: 1.23

Query string: Please respond with reported log10(IC50) (system Cannabinoid receptor 1 (Homo sapiens, UniProt P21554)) for CC(C)C(=O)c1oc2nc(-c3ccccc3Cl)c(-c3ccc(Cl)cc3)cc2c1NC(=O)CO .
Result string: -0.40

----------
- assay notes: Bioavailability in rat
- Format: ADME, organism-based
- stated conditions: in vivo
True means recorded bioavailability is 60% or above; False means it is below 60%.

Query string: Could you please find out whether CC(C)(C)C(=O)c1oc2nc(-c3ccccc3Cl)c(-c3ccc(Cl)cc3)cc2c1N has bioavailability that meets 60% or exceeds it?
Result string: True

Query string: Could you please find out whether CC(C)(C)C(=O)c1oc2nc(-c3ccccc3Cl)c(-c3ccc(Cl)cc3)cc2c1NC(=O)CO has bioavailability that meets 60% or exceeds it?
Result string: False

Query string: Could you please find out whether CC(C)(O)C(=O)c1oc2nc(-c3ccccc3Cl)c(-c3ccc(Cl)cc3)cc2c1NC(=O)CO has bioavailability that meets 60% or exceeds it?
Result string: True

Query string: Could you please find out whether CC(C)C(=O)c1oc2nc(-c3ccccc3Cl)c(-c3ccc(Cl)cc3)cc2c1NC(=O)CO has bioavailability that meets 60% or exceeds it?
Result string: False

----------
- assay notes: Half life in dog
- Type: ADME, organism-based, Canis lupus familiaris
- stated conditions: in vivo
half-life values by entry
The response must be a number in h with no trailing unit.

Worked examples, 3 compounds total:
smiles record: CC(C)(C)C(=O)c1oc2nc(-c3ccccc3Cl)c(-c3ccc(Cl)cc3)cc2c1NC(=O)CO
value reported: 11
--
smiles record: CC(C)(O)C(=O)c1oc2nc(-c3ccccc3Cl)c(-c3ccc(Cl)cc3)cc2c1NC(=O)CO
value reported: 1.8
--
smiles record: CC(C)C(=O)c1oc2nc(-c3ccccc3Cl)c(-c3ccc(Cl)cc3)cc2c1NC(=O)CO
value reported: 52

Query string: Give me measured half-life, please, for this compound: CC(=O)Nc1c(C(=O)C(C)(C)O)oc2nc(-c3ccccc3Cl)c(-c3ccc(Cl)cc3)cc12
Result string: 26

Query string: Give me measured half-life, please, for this compound: CC(C)(C)C(=O)c1oc2nc(-c3ccc(Cl)cc3Cl)c(-c3ccc(Cl)cc3)cc2c1N
Result string: 7.9

----------
- assay notes: Half life in rat at 3 mg/kg
- Format: ADME, organism-based
- Set-up: dose 3 mg/kg
- stated conditions: in vivo
experimental endpoint: half-life

Query string: Give me measured half-life, please, for this compound: CC(=O)Nc1c(C(C)=O)c(=O)n(C)c2nc(-c3ccc(Cl)cc3Cl)c(-c3ccc(Cl)cc3)cc12
Result string: > 8 h

----------
- Tested on: Brain
- assay notes: Drug level in CD1 mouse brain at 30 mg/kg, po
- Assay type: ADME, organism-based
- Set-up: dose 30 mg/kg, route oral
- stated conditions: in vivo, read-out: Drug uptake
experimental endpoint: concentration (nM)
The response must be a number in nM with no trailing unit.

Query string: Give me measured concentration, please, for this compound: CC(C)(O)C(=O)c1oc2nc(-c3ccccc3Cl)c(-c3ccc(Cl)cc3)cc2c1NC(=O)CO
Result string: 2300

----------
- assayed target: UniProtKB P10635
- Sequence (P10635 whole entry): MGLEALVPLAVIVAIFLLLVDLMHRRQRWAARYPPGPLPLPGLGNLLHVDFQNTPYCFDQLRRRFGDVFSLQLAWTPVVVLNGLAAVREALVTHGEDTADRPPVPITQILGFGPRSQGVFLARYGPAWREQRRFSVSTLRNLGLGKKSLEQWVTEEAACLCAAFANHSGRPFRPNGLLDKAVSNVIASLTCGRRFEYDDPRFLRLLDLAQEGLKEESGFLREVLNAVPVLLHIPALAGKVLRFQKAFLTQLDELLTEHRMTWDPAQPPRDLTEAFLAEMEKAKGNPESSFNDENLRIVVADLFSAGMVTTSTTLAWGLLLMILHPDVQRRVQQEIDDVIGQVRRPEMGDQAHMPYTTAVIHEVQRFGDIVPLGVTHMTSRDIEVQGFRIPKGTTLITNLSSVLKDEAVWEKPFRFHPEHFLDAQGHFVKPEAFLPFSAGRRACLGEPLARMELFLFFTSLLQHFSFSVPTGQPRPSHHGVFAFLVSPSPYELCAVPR
experimental endpoint: IC50 (µM)
The response must be a number in µM with no trailing unit.

Query string: Please respond with reported IC50 (system UniProtKB P10635) for CC(C)(O)C(=O)c1oc2nc(-c3ccccc3Cl)c(-c3ccc(Cl)cc3)cc2c1NC(=O)CO .
Result string: 73

----------
- assay notes: Metabolic stability in monkey liver microsomes assessed as compound remaining after 60 mins
- Type: ADME, Macaca fascicularis, Microsome
- stated conditions: cynomolgus monkey, read-out: Activity
experimental endpoint: remaining at 1 h (%)
The response must be a number in % with no trailing unit.

Query string: Give me measured remaining at 1 h, please, for this compound: CC(C)(C)C(=O)c1oc2nc(-c3ccc(Cl)cc3Cl)c(-c3ccc(Cl)cc3)cc2c1N
Result string: 25
